Read-out: Cytochrome P450 3A7 (Homo sapiens) (UniProt P24462)
Sequence (P24462 whole entry, looked up): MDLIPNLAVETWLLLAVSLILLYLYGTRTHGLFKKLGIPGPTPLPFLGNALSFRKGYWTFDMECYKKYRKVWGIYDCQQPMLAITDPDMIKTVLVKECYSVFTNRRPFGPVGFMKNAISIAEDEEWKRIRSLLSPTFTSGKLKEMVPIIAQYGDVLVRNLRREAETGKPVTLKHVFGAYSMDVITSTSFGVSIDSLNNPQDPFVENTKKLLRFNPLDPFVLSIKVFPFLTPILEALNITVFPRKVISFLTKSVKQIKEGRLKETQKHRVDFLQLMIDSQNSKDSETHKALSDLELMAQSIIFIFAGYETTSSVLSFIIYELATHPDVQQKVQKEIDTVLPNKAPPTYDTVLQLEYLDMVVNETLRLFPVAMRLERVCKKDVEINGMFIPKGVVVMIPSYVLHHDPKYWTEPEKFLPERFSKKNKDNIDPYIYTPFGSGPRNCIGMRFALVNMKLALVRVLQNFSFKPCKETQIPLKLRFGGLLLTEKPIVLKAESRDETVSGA
Assay protocol: LTEA_HepaRG_CYP3A7: Life Technologies and Expression Analysis (LTEA) Assay for CYP3A7 using HepaRG (AID 2283492)
Recorded conditions: mRNA level, 48 h; actives raise or lower the signal
The source made the active and inactive calls. Rule for the calls: active = hit-call score of the fitted dose curve at least 0.9, where 1 is the maximum; inactive = score below 0.9.
Outcome codes: true for active, false for inactive

# Molecule, Assigned class
rows = [
    ("ClC(Cl)c1ccccc1", "false"),
    ("CCN(CC)c1ccccc1", "false"),
    ("Nc1ccc2ccccc2c1", "false"),
    ("O=C(O)C(Cl)Cl", "false"),
    ("O=P1(N(CCCl)CCCl)NCCCO1 (stereo unspecified)", "false"),
    ("CCCCc1ccccc1", "false"),
    ("CC(Cl)(Cl)C(=O)O", "false"),
    ("CC(Cc1ccc(OCC(=O)O)cc1)NCC(O)c1csc(C(F)(F)F)n1 (stereo unspecified)", "false"),
    ("CCC1(c2ccccc2)C(=O)N=C(O)NC1=O (stereo unspecified)", "true"),
    ("c1ccc(OP(Oc2ccccc2)Oc2ccccc2)cc1", "false"),
    ("O=P(Oc1ccccc1)(Oc1ccccc1)Oc1ccccc1", "true"),
    ("Nc1cc2c3c(c1)C(c1ccccc1)=N[C@@H](NC(=O)c1cccnc1)C(=O)N3CC2", "true"),
    ("ClC(Cl)(Cl)c1ccccc1", "false"),
    ("OCC1CO1 (stereo unspecified)", "false"),
    ("O=[N+]([O-])c1ccccc1", "false"),
    ("CCCCN(CCCC)SN(C)C(=O)Oc1cccc2c1OC(C)(C)C2", "true"),
]

---

Read-out: Cytochrome P450 (CYP2B6), CYP2B6 (gene 1555)
Assay protocol: LTEA_HepaRG_CYP2B6: Life Technologies and Expression Analysis (LTEA) Assay for Cytochrome P450 (CYP2B6) using HepaRG (AID 2283481)
Recorded conditions: mRNA level, 48 h; actives raise or lower the signal
Calls of active or inactive are those of the source. How the source made its calls: active means hit-call score of the fitted dose curve at least 0.9, where 1 is the maximum; inactive means score below 0.9.

# Compound, AC50
rows = [
    ("CCOP(=S)(OCC)SCSCC", "4.47 µM (active)"),
    ("O=C(O)C(Cl)Cl", "inactive"),
    ("OCC1CO1 (stereo not drawn)", "inactive"),
    ("COCCOCCO", "1.15 µM (active)"),
    ("CCC1(c2ccccc2)C(=O)N=C(O)NC1=O (stereo not drawn)", "34.7 µM (active)"),
    ("ClC(Cl)c1ccccc1", "22.8 µM (active)"),
    ("c1nc[nH]n1", "inactive"),
    ("CC(Cc1ccc(OCC(=O)O)cc1)NCC(O)c1csc(C(F)(F)F)n1 (stereo not drawn)", "inactive"),
    ("CCOS(=O)(=O)OCC", "inactive"),
    ("CCCCN(CCCC)N=O", "inactive"),
    ("Nc1ccc2ccccc2c1", "13 µM (active)"),
    ("[N-]=[N+]=[N-]", "88.3 µM (active)"),
    ("ClC(Cl)(Cl)c1ccccc1", "inactive"),
    ("CC(Cl)(Cl)C(=O)O", "inactive"),
    ("CN(C)C(=O)Cl", "inactive"),
    ("O=C(O)C1C(C(=O)O)C2(Cl)C(Cl)=C(Cl)C1(Cl)C2(Cl)Cl (stereo not drawn)", "inactive"),
    ("CSC(C)(C)C=NO", "inactive"),
    ("Nc1cc2c3c(c1)C(c1ccccc1)=N[C@@H](NC(=O)c1cccnc1)C(=O)N3CC2", "3.51 µM (active)"),
    ("CCCN(CCC)c1c([N+](=O)[O-])cc(C(C)C)cc1[N+](=O)[O-]", "9.38 µM (active)"),
    ("O=P(Oc1ccccc1)(Oc1ccccc1)Oc1ccccc1", "1.23 µM (active)"),
    ("CCCCc1ccccc1", "inactive"),
    ("CCOP(=S)(Oc1ccc([N+](=O)[O-])cc1)c1ccccc1 (stereo not drawn)", "1.05 µM (active)"),
    ("O=P1(N(CCCl)CCCl)NCCCO1 (stereo not drawn)", "50 µM (active)"),
]

// provenance: PubChem BioAssay (EPA / NIEHS)
